system: NCI-H460; test: NCI tumour cell line growth inhibition, 48 h
Activity calls are given as the source filed them. Rule as the data show it: active = GI50 up to about 1.1 µM and inactive = higher.
Outcomes: active, inactive

[
  {
    "MOLECULE": "COc1cc(C2c3cc4c(cc3OC(NNC(N)=O)C2C)OCO4)cc(OC)c1O (stereo not given)",
    "CAT": "inactive"
  },
  {
    "MOLECULE": "N#C[C@H](c1nc2ccccc2s1)c1nc2ccccc2nc1Cl",
    "CAT": "inactive"
  },
  {
    "MOLECULE": "Cc1cc(=O)c2cc(/N=C/c3ccc([N+](=O)[O-])o3)ccc2o1",
    "CAT": "inactive"
  },
  {
    "MOLECULE": "CCOC(=O)C1=C(OC(OCC)C(CC)[Se]c2ccccc2)CCCC1 (stereo not given)",
    "CAT": "inactive"
  },
  {
    "MOLECULE": "CCCCCn1cc2c3c(cccc31)C1C=C(C)CN(C)[C@@H]1C2.Cc1ccc(C(=O)OC(C(=O)O)C(OC(=O)c2ccc(C)cc2)C(=O)O)cc1 (stereo not given)",
    "CAT": "inactive"
  },
  {
    "MOLECULE": "CCOP(=O)(OCC)OC1c2[nH]cc(C(=O)OCc3ccccc3)c2-c2cc(C(=O)OC)[nH]c2C1OC (stereo not given)",
    "CAT": "inactive"
  },
  {
    "MOLECULE": "CCO/C([O-])=C(/C=O)[n+]1c(C)n(C)c2ccccc21",
    "CAT": "inactive"
  },
  {
    "MOLECULE": "C[C@]12CC(C=O)C(=O)C(O)=C1CC[C@@H]1C2CC[C@@]2(C)C1CC[C@]2(C)O (stereo not given in full)",
    "CAT": "inactive"
  },
  {
    "MOLECULE": "Cc1nc(N)nc(CCC(=O)Nc2cccc(C(F)(F)F)c2)c1-c1ccc(Cl)cc1",
    "CAT": "inactive"
  },
  {
    "MOLECULE": "Fc1cc2nc3n(c2cc1F)C(c1c(F)cccc1F)SC3 (stereo not given)",
    "CAT": "inactive"
  },
  {
    "MOLECULE": "CCc1nc(N)nc(N)c1-c1ccc(NC)c([N+](=O)[O-])c1",
    "CAT": "active"
  },
  {
    "MOLECULE": "O=C(CCl)NNC1=Nc2ccc(Cl)cc2SC1",
    "CAT": "inactive"
  },
  {
    "MOLECULE": "COC(=O)C1=C(C(=O)OC)C(C(=O)c2ccccc2)N2N=C(c3ccc(Cl)cc3)C=CC12 (stereo not given)",
    "CAT": "inactive"
  },
  {
    "MOLECULE": "CC(=O)OCC1OC(OCCCOP(=O)(OCCC#N)OCC2OC(n3cnc4c(N)ncnc43)C(OC(=O)c3ccccc3)C2OC(=O)c2ccccc2)C(OC(C)=O)C(OC(C)=O)C1OC(C)=O (stereo not given)",
    "CAT": "inactive"
  },
  {
    "MOLECULE": "COC(=O)C(/C(=N/NC(N)=O)C(=O)Nc1ccc(C)cc1)c1nc2ccc([N+](=O)[O-])cc2nc1O (stereo not given)",
    "CAT": "inactive"
  }
]

* * *

test system: Malme-3M; test: NCI tumour cell line growth inhibition, 48 h
Calls of active or inactive are those of the source. Rule as the data show it: active = GI50 up to about 1.1 µM and inactive = higher.

[
  {
    "COMPOUND": "COc1cccc(-c2cc(O)c3cc(N)ccc3n2)c1",
    "GI50": "2.14 µM (inactive)"
  },
  {
    "COMPOUND": "CN(C)CCNC(=O)c1cc([N+](=O)[O-])cc2ccc(-c3ccccc3)nc12",
    "GI50": "6.59 µM (inactive)"
  },
  {
    "COMPOUND": "CCCCn1c2c(n(CCCC)c1=[Se])-c1c(n(CCCC)c(=[Se])n1CCCC)S[Se][Se]S2",
    "GI50": "3.52 µM (inactive)"
  },
  {
    "COMPOUND": "O=c1cc(-c2ccccc2)[nH]c2cc(F)cc(F)c12",
    "GI50": "16.7 µM (inactive)"
  },
  {
    "COMPOUND": "CN(N)C(=O)NCCCl",
    "GI50": "> 100 µM (inactive)"
  },
  {
    "COMPOUND": "CC(C)(C)NC(NC(C)(C)C)=C(/C=C(/Cl)[N+](=O)[O-])[N+](=O)[O-]",
    "GI50": "10.3 µM (inactive)"
  },
  {
    "COMPOUND": "C[C@H](NC1=CC(=O)C(N[C@@H](C)[C@H](O)c2ccccc2)=CC1=O)[C@H](O)c1ccccc1",
    "GI50": "67.6 µM (inactive)"
  },
  {
    "COMPOUND": "COc1ccc2c(c1)c1c3c(ccc4ncn2c43)N(CCN(C)C)CCN=1",
    "GI50": "1.2 µM (inactive)"
  },
  {
    "COMPOUND": "NC(=O)C1CCCN1Cc1ccc2c(c1)OCO2 (stereo not drawn)",
    "GI50": "> 100 µM (inactive)"
  },
  {
    "COMPOUND": "CCc1cc(Cc2cc(Cl)c(NC(=O)C(=O)C3NC(=O)NC3=O)c(CC)c2)cc(Cl)c1NC(=O)C(=O)C1NC(=O)NC1=O (stereo not drawn)",
    "GI50": "> 100 µM (inactive)"
  },
  {
    "COMPOUND": "COC[C@H]1C(=O)NCC(=O)N2N=CCC[C@H]2C(=O)N(O)[C@H](C)C(=O)O[C@@H](C(C)C)[C@H](NC(=O)[C@@](C)(O)[C@]2(O)CC[C@@H](CC(C)C)[C@H](C)O2)C(=O)N2NCCC[C@@H]2C(=O)N1O",
    "GI50": "0.0171 µM (active)"
  },
  {
    "COMPOUND": "O=C1c2cc(Cc3ccccc3)c(=O)c(Cc3ccccc3)cc2C(=O)c2cc(Cc3ccccc3)c(=O)c(Cc3ccccc3)cc21",
    "GI50": "> 100 µM (inactive)"
  },
  {
    "COMPOUND": "COC1CC2C3/C(=N/Nc4ccc([N+](=O)[O-])cc4[N+](=O)[O-])CCC2(C)C3C1 (stereo not drawn)",
    "GI50": "> 10 µM (inactive)"
  },
  {
    "COMPOUND": "COC(=O)C(/C(=N/NC(N)=O)C(=O)Nc1ccc(C)cc1)c1nc2ccc([N+](=O)[O-])cc2nc1O (stereo not drawn)",
    "GI50": "> 100 µM (inactive)"
  },
  {
    "COMPOUND": "COc1ccc(OC)c2c1C[C@@H]1C(C#N)N3[C@H](Cc4c(OC)ccc(OC)c4[C@@H]3C)C(=O)N1[C@H]2C (stereo partly drawn)",
    "GI50": "2.87 µM (inactive)"
  },
  {
    "COMPOUND": "CC1(C)[C@@H]2C[C@H]1C(Cc1ccc(C[C@H]3c4cc(-c5ccccn5)ncc4[C@H]4C[C@@H]3C4(C)C)cc1)c1cc(-c3ccccn3)ncc12 (stereo partly drawn)",
    "GI50": "4.53 µM (inactive)"
  },
  {
    "COMPOUND": "COC(=O)C(=O)C(C(=O)C(N)=O)c1nc2ccc(C(=O)c3ccccc3)cc2nc1O (stereo not drawn)",
    "GI50": "> 100 µM (inactive)"
  },
  {
    "COMPOUND": "CCCn1cnc2c(/N=N/O)ncnc21",
    "GI50": "> 100 µM (inactive)"
  }
]
